The values you see were collected from patent US10040781B2.

hJAK2 (Homo sapiens (Human)): reported IC50 for various compounds.
Sequence (O60674 whole entry): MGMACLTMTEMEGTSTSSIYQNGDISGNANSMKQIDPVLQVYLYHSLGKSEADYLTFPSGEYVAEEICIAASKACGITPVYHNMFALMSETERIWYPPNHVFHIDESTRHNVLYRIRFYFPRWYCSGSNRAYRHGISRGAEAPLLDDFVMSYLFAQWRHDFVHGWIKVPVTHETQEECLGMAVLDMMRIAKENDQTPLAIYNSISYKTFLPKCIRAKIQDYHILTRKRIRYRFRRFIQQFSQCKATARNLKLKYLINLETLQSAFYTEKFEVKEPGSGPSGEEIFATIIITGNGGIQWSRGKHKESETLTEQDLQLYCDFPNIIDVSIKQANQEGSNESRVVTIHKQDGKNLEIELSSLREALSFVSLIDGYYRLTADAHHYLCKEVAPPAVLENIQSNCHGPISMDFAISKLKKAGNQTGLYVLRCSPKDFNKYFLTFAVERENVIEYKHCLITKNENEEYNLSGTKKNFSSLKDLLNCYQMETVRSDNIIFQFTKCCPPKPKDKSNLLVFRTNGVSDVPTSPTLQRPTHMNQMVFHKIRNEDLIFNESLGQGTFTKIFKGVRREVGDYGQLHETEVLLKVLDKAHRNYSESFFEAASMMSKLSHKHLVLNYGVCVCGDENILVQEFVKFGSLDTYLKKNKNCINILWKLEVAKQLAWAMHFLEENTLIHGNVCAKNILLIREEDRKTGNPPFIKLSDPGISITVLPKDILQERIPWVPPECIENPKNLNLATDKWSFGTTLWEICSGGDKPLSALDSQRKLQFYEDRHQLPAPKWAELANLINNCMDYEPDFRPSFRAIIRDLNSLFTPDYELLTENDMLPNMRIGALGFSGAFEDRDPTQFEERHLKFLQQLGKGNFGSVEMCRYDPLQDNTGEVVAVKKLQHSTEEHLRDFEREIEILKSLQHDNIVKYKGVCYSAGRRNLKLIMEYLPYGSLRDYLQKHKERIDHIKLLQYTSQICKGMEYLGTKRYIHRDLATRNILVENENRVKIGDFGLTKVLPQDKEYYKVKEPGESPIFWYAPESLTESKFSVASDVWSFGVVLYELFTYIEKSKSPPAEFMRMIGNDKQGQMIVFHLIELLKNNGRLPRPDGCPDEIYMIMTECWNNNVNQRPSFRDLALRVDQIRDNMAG
Parameter measured: IC50 (nM)

# count of solved cases: 8
Consider the compound C[C@H](O)C(=O)N1CC[C@H](Oc2ccc(-c3ncnc(Nc4ccc(N5CCN(CCO)CC5)cc4)n3)cc2C#N)[C@H](F)C1 and give its measured IC50.
479

Could you share which IC50 value was measured for N#Cc1cc(-c2ncnc(Nc3ccc(N4CCN(C5COC5)CC4)cc3)n2)ccc1O[C@H]1CCN(Cc2nc(=O)[nH][nH]2)C[C@H]1F ?
156

# IC50 lookup, item COC[C@H](O)C(=O)N1CC[C@H](Oc2ccc(-c3ncnc(Nc4ccc(N5CCN(C6COC6)CC5)cc4)n3)cc2C#N)[C@H](F)C1
162

Looking for the measured IC50 of N#Cc1cc(-c2ncnc(Nc3ccc(N4CCN(C5COC5)CC4)cc3)n2)ccc1O[C@H]1CCN(C(=O)c2cncc(N)n2)C[C@H]1F , can you help?
122

Please look up its IC50: C[C@H](O)C(=O)N1CC[C@H](Oc2ccc(-c3ncnc(Nc4ccc(N5CCO[C@@H](CO)C5)cc4)n3)cc2C#N)C(F)(F)C1
131

Would you mind telling me what IC50 value was observed for CCOC(=O)c1cccc(Nc2ncnc(-c3ccc(O[C@H]4CCN(C(=O)[C@H](C)O)C[C@H]4F)c(C#N)c3)n2)c1 ?
891

May I ask what IC50 has been recorded for C[C@H]1CN(c2ccc(Nc3ncnc(-c4ccc(O[C@H]5CCN(C(=O)CO)CC5(F)F)c(C#N)c4)n3)cc2)CCN1C1COC1 ?
46

Entry under review: N#Cc1cc(-c2ncnc(Nc3ccc(N4CCN(C5COC5)CC4)cc3)n2)cc(F)c1O[C@H]1CCN(C(=O)CCO)C[C@H]1F . Reported IC50?
943

(a) N#Cc1cc(-c2ncnc(Nc3ccc(N4CCN(C5COC5)CC4)cc3)n2)ccc1O[C@H]1CCN(C(=O)N2CC[C@@H](O)C2)C[C@H]1F
(b) CC(C)(C)n1cc(Nc2ncnc(-c3ccc(O[C@H]4CCN(C(=O)CO)C[C@H]4F)c(C#N)c3)n2)cn1
Lab note: record which item had the higher IC50, a or b . # reply format: chosen label
a

(1) N#Cc1cc(-c2ncnc(Nc3ccc(N4CCN(C5COC5)CC4)cc3)n2)ccc1OCCNC(=O)c1cccnc1
(2) Cc1cc(Nc2ncnc(-c3ccc(O[C@H]4CCN(C=O)CC4(F)F)c(C#N)c3)n2)ccc1C1CCNCC1
Of 1 and 2 , which shows the smaller IC50 value? Select an item and report its label.
2
(2: 290 nM, 1: 521 nM)
